- Tested on: NCI-H522
- test-summary: NCI tumour cell line growth inhibition, 48 h
Activity calls are given as the source filed them. No stated cut-off is given here; in the data, active = GI50 up to about 1.1 µM and inactive = higher.
Answer with one of the outcomes 1 = active, 0 = inactive

Observe how each entry below is paired with its result.
> print(dat)
                                   molecule  classification
1  CNC1Cc2c[nH]c3cccc(c23)C12C=C(C)C(=O)O2 (stereo unspecified)               0
2   Cc1ccc(NC(=O)C(=O)Cc2cccc[n+]2[O-])cc1C               0
3  C=CCN1C(N)=C(C(N)=O)S/C1=C1/SC(=S)N(c2ccc(C)cc2)C1=O               0
4  COc1cc(C2S/C(=C/c3ccccc3)C(=O)N2Cc2ccccc2)cc(OC)c1OC (stereo unspecified)               0
5  O=C1C[C@H](Sc2ccccc2)C2(OCCO2)[C@H]2ON3CCC[C@@H]3[C@@H]12               1

Field: next molecule
*Q* Please share the test call associated with CN(C(=O)c1ccc([N+](=O)[O-])cc1)c1ccccc1 .
*A* 0
